Data origin, for the record: patent US20240272170A1

Overview of recorded Enrichment for various binders
molecular target: N-terminal alanine peptide (SNAP display selection); assay: SNAP display, 4 rounds of selection on alanine peptide; NGS abundance in round 4 / naive library
# print the numeric value only

Example binders with recorded Enrichment:
>>> reading("PS557 mutant N41D, E63S, L68M, V72M, R106H (SNAP display clone) (designed binder, not shown: large carriers; small tags and cut ends, In the selection the protein carried an N-terminal SNAP tag covalently bound to benzylguanine on its own coding DNA; this is not in the letters.) MPTAASATESAIEDTPAPARPEVDGRTKPKRQPRYHVVLWDDDDHTYQYVVVMLQSLFGHPPSRGYRMAKEMDTQGRVIVLTTTREHAELKRDQIHAFGYDRLLAHSKGSMKASIEAEE")
124
>>> reading("PS557 mutant N41D, Q55R, E63S, L68M, V72M, Y100R (SNAP display clone) (designed binder, not shown: large carriers; small tags and cut ends, In the selection the protein carried an N-terminal SNAP tag covalently bound to benzylguanine on its own coding DNA; this is not in the letters.) MPTAASATESAIEDTPAPARPEVDGRTKPKRQPRYHVVLWDDDDHTYQYVVVMLRSLFGHPPSRGYRMAKEMDTQGRVIVLTTTREHAELKRDQIHAFGRDRLLARSKGSMKASIEAEE")
166
>>> reading("PS557 mutant N41D, Q55R, P62Y, E63T, V72M, Y100R (SNAP display clone) (designed binder, part only, N-terminal SNAP tag) MPTAASATESAIEDTPAPARPEVDGRTKPKRQPRYHVVLWDDDDHTYQYVVVMLRSLFGHPYTRGYRLAKEMDTQGRVIVLTTTREHAELKRDQIHAFGRDRLLARSKGSMKASIEAEE")
158
>>> reading("PS557 mutant N41D, Q55R, H60I, V72M (SNAP display clone) (designed binder, not shown: large carriers; small tags and cut ends, In the selection the protein carried an N-terminal SNAP tag covalently bound to benzylguanine on its own coding DNA; this is not in the letters.) MPTAASATESAIEDTPAPARPEVDGRTKPKRQPRYHVVLWDDDDHTYQYVVVMLRSLFGIPPERGYRLAKEMDTQGRVIVLTTTREHAELKRDQIHAFGYDRLLARSKGSMKASIEAEE")
320
>>> reading("PS557 mutant N41D, Q55R, E63W, V72M, R106H (SNAP display clone) (designed binder, not shown: large carriers; small tags and cut ends, In the selection the protein carried an N-terminal SNAP tag covalently bound to benzylguanine on its own coding DNA; this is not in the letters.) MPTAASATESAIEDTPAPARPEVDGRTKPKRQPRYHVVLWDDDDHTYQYVVVMLRSLFGHPPWRGYRLAKEMDTQGRVIVLTTTREHAELKRDQIHAFGYDRLLAHSKGSMKASIEAEE")
133

Which Enrichment is listed for PS557 mutant N41D, Q55R, E63A, V72M, Y100R (SNAP display clone) (designed binder, not shown: large carriers; small tags and cut ends, In the selection the protein carried an N-terminal SNAP tag covalently bound to benzylguanine on its own coding DNA; this is not in the letters.) MPTAASATESAIEDTPAPARPEVDGRTKPKRQPRYHVVLWDDDDHTYQYVVVMLRSLFGHPPARGYRLAKEMDTQGRVIVLTTTREHAELKRDQIHAFGRDRLLARSKGSMKASIEAEE ?
154
